- Test system: Colo320/MDR-LRP resistant human colonic adenocarcinoma cell line
- assay summary: MTT cytotoxicity assay on Colo320 cells
- Format: cell-based
- recorded conditions: Homo sapiens, COLO 320; MTT; incubation time 72 h
property label: IC50 (µM)
Reply numerically in µM, unit not repeated.

IC50 of COc1cccc2c1C(=O)c1c(O)c3c(c(O)c1C2=O)C[C@@](O)(C(=O)CO)C[C@@H]3O[C@H]1C[C@H](N)[C@H](O)[C@H](C)O1 [doxorubicin, reference compound] on Colo320/MDR-LRP resistant human colonic adenocarcinoma cell line?
3.13
